Biological target: T1, Cyno CD33 full length, expressed on HEK293F cells (cynomolgus monkey)
T1 construct: HEK293F cells transduced with lentivirus containing full length cyno CD33 (Genbank XP_005590138.1); also called cyCD33
Test: flow cytometry, HEK293F cells expressing cyno CD33
I'd be grateful if you could share measured MFI at 0.6 nM mAb for these entries.
Numbers only, in MFI.

>>> reading("C33B54 (antibody, IgG1, V domains shown, huIgG1 F405L; also called C33F59; C33H44/C33L10) VH: QVQLQQSGPGLVKPSQTLSLTCAISGDSVSSNSAAWNWIRQSPSRGLEWLGRTYYRSKWYNDYAVSVRSRITINPDTSKNQFSLQLNSVTPEDTAVYHCARETMFRGLMDYWGQGTLVTVSS VL: SYVLTQPPSVSVAPGQTARITCGGSNIGSKSVHWYQQKPGQAPVMVVYDDSDRPSGIPERFSGSNSGNTATLTISRVEAGDEADYYCQVWDSSSDVVFGGGTKLTVL")
38100

Lookup: Look up MFI at 0.6 nM mAb: C33B73 (antibody, IgG1, V domains shown, huIgG1 F405L; also called C33F78; C33H66/C33L60) VH: QVQLVESGGGVVQPGRSLRLSCVASGFTFSSYGMHWVRQAPGKGLEWVAVISYDGSNKYYADSVKGRFTISRDNSKNTLYLQMNSLRAEGTAVYYCAKDFRSFDWLPPDSASYHGMDVWGQGTTVTVSS VL: SYELTQPPSVSVSPGQTASITCSGDKLGDKYACWYQQKPGQSPVLVIYQDGKRPSGIPERFSGSNFGNKATLTISGTQAMDEADYYCQAWDRNTVVFGGGTKLTVL
Found: 796
